So I've got a bunch of sequences here, and I need their pKd values.
- MEASUREMENT TARGET: HLA-A*02:01
- ASSAY SUMMARY: IEDB peptide-MHC binding, purified MHC/competitive/fluorescence; filed as Kd, often an IC50 or EC50 that approximates it; bounds were set here for any values at or beyond the usual limits of such assays
- STATED CONDITIONS: source organism: Zaire ebolavirus
pKd: −log10 of the molar value.

-- ask Form field - read-out: pKd; system: HLA-A*02:01; submitted item: ISSGETRSF
-- reply ≤ 4.70

Let's switch to this sequence now.
-- ask Form field - read-out: pKd; system: HLA-A*02:01; submitted item: IMYDHLPGF
-- reply ≤ 4.70

The measured values listed here are drawn from the Immune Epitope Database (IEDB).
